Target: T1, human MASP-2cf CCP1-CCP2-SP (human, UniProt O00187 298-686, limits assumed)
T1 construct: domain: CCP1-CCP2-SP; also called human MASP-2 catalytic fragment
T1 sequence (O00187 298-686 limits assumed): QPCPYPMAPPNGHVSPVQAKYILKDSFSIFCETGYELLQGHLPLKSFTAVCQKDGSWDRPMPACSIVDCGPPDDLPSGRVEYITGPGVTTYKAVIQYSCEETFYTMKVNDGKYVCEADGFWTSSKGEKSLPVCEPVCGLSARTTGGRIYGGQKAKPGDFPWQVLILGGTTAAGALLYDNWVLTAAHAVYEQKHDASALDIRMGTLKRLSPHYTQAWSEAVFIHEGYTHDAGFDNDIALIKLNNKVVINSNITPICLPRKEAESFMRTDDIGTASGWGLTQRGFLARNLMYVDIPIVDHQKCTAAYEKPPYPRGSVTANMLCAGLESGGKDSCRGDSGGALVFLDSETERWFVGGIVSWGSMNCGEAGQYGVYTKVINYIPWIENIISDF
Assay: enzyme inhibition, tight-binding fit
pKi: −log10 of the molar value. Where no end group is shown, it is not given here.
# pKi annotations

# BINDER, pKi
data = [
    ("EVO24 (designed binder, not fully specified; cysteine pairing not given here, Modified TFPI-D2 Kunitz domain; made as m1) KPDFCFLENDPGPCRALKRRYFYNNQTKQCERFYYGGCLGNMNNFETLEECKNICEDG", 9.47),
    ("EVO21c (designed binder, not fully specified; cysteine pairing not given here, Modified TFPI-D2 Kunitz domain; made as m1) KPDFCFLEEDPGPCRALKRRYFYNNQTKQCERFGYGGCFGNMNNFVTLEECKNICEDG", 10.19),
    ("EVO224 (designed binder, not fully specified; cysteine pairing not given here, Modified TFPI-D2 Kunitz domain; made as m1) KPDFCFLENDPGVCRALAVRYFYNNQTKQCERFYYGGCLGNMNNFVTLEECKNICEDG", 8.95),
]
